Measured values drawn from ChEMBL document CHEMBL4513216 for this set.

Tested on: Plasmodium berghei
assay.procedure: Screen against P. berghei liver stage (PbLuc), transformed with Luciferase, at 10uM
Assay type: functional, HepG2
measurement.conditions: tested at 10 uM
The whole screen tested about 69,000 compounds, of which about 8,600 (12%) showed an effect of 50% or more. The entries come from a sample that favours strong results as a whole.
Labelling field: enter rule met if recorded INHIBITION is less than 10%. Enter rule not met if it equals or exceeds that cut-off.

compound: Cc1cnn(CCNCC(O)COc2ccc3ccccc3c2)c1 (centres undefined)
target.or.system: Plasmodium berghei
cat: rule not met

compound: CN(C)CC1(O)CCN(C(=O)Cc2ccc3ccccc3c2)C1 (centres undefined)
target.or.system: Plasmodium berghei
cat: rule met

compound: CN1C(=O)CC(C(=O)O)C12CCN(Cc1cc(Cl)ccc1F)CC2 (centres undefined)
target.or.system: Plasmodium berghei
cat: rule not met

compound: CC(=O)N1CCC(NC(=O)Cc2csc(C(C)(C)C)n2)CC1
target.or.system: Plasmodium berghei
cat: rule met

compound: Cc1ncsc1C(=O)NC1CCN(Cc2cccc3c2OCCO3)CC1
target.or.system: Plasmodium berghei
cat: rule not met

compound: CCCN1CCN(C(=O)c2cnc(C)nc2)[C@H]2CS(=O)(=O)C[C@H]21
target.or.system: Plasmodium berghei
cat: rule met

Consider the compound `COC(=O)c1cc2c(OC)c(OC)c(OC)cc2[nH]1` . Is its INHIBITION strictly less than 10%?
rule not met

Please check: INHIBITION for CN1C(=O)CC(C(=O)O)C12CCN(Cc1ccc(Cl)cc1F)CC2 (centres undefined) , strictly under 10% or not?
rule met

Consider the compound `COCCCN1Cc2cccc(NC(=O)c3cc(F)cc(F)c3)c2C1` . Is its INHIBITION strictly less than 10%?
rule not met

In the record for `O=C(NCCc1c[nH]cn1)c1n[nH]c2c1CCC2` , is INHIBITION less than 10%?
rule met

Hello, is INHIBITION of the following compound strictly smaller than 10%? CC(CS(C)(=O)=O)NC(=O)N1CC2(CCCC2)c2ccccc21 (centres undefined)
rule met

API: query returns whether the compound falls strictly under 10% in INHIBITION. Query: C1CCC(c2nn3c(C4CCCO4)nnc3s2)C1 (centres undefined)
rule met

Quick check: INHIBITION of O=S(=O)(NCC(O)c1ccc(C(F)(F)F)cc1)C1CC1 (centres undefined) under 10%?
rule not met

Answer whether the compound `CCc1nc(CN2CCC(C(=O)N(C)C)CC2)cs1` has INHIBITION strictly less than 10%
rule not met

====

Tested on: Plasmodium berghei
assay.procedure: Screen against P. berghei liver stage (PbLuc), transformed with Luciferase, at 10uM
Format: functional, HepG2
measurement.conditions: tested at 10 uM
Screen size: about 69,000 compounds; about 8,600 (12%) showed an effect of 50% or more. The list comes from a sample in which strong results are over-represented; it also holds close analogues and randomly drawn compounds.
measured.parameter: INHIBITION (%)
Supply the numeric figure in %, leaving out any unit text.

Recorded results for 4 compounds are shown here.
compound: CC(NC(=O)NCC(C)(C)C(N)=O)c1nc(-c2ccccc2)cs1 (stereo not given)
INHIBITION (%): 28.6

compound: CNC(=O)[C@@H](c1ccccc1F)N1CCC[C@H]1C(=O)NC1CC1
INHIBITION (%): 0.734

compound: Cc1nn(CC(C)C)c(N(C)C)c1CNCc1ccccc1CO
INHIBITION (%): -21.8

compound: CCc1nc(CN2CCCC2c2c(C)nn(C)c2OC)no1 (stereo not given)
INHIBITION (%): 33.8

Supply recorded INHIBITION for COc1nc2c(cc1C(=O)NC(C)Cc1cc(C)n[nH]1)CCC2 (stereo not given) here.
-37.9

Please look at this compound and report its INHIBITION: CC(C(=O)N1CCCN(c2ccccc2C#N)CC1)n1cccn1 (stereo not given)
-6.44

Note INHIBITION for the compound shown: O=C(O)c1cc2c(nc1NCC1CC1)CCN(C1CCOC1)CC2 (stereo not given)
29.8
